# Test system: CCRF-CEM
# EXPERIMENTAL PROTOCOL: Cytotoxicity against human CCRF-CEM cells assessed as cell growth at 1 uM after 48 hrs by sulforhodamine B assay relative to control
# Assay type: functional
# SETUP CONDITIONS: read-out: Activity
Measured growth at 1 µM values are reported for all entries that follow.
Answers without a unit are incomplete; give the number and then its unit.

# count of solved cases: 4
CHEMICAL STRING: COc1ccc(-c2cc(/C=C/C(=O)c3cc(OC)c(OC)c(OC)c3)[nH]n2)cc1OC
MEASURE NAME: growth at 1 µM
REPORTED VALUE: 14%

CHEMICAL STRING: COc1cc(C(=O)/C=C/c2cc(-c3ccc4c(c3)OCO4)n[nH]2)cc(OC)c1OC
MEASURE NAME: growth at 1 µM
REPORTED VALUE: 83%

CHEMICAL STRING: COc1ccc(-c2cc(/C=C/C(=O)c3ccc(N)cc3)[nH]n2)cc1OC
MEASURE NAME: growth at 1 µM
REPORTED VALUE: 68%

CHEMICAL STRING: COc1cc(-c2cc(/C=C/C(=O)c3ccc(N)cc3)[nH]n2)cc(OC)c1OC
MEASURE NAME: growth at 1 µM
REPORTED VALUE: 36%

Next molecule, please.
Enquiry: Please give the measured growth at 1 µM for this molecule: COc1cc(-c2cc(/C=C/C(=O)c3ccc4c(c3)OCO4)[nH]n2)cc(OC)c1OC
Return: 67%

Sourced from ChEMBL document CHEMBL4138123
